Test System: Neuronal acetylcholine receptor subunit alpha-7 (Homo sapiens)
Sequence (P36544 whole entry): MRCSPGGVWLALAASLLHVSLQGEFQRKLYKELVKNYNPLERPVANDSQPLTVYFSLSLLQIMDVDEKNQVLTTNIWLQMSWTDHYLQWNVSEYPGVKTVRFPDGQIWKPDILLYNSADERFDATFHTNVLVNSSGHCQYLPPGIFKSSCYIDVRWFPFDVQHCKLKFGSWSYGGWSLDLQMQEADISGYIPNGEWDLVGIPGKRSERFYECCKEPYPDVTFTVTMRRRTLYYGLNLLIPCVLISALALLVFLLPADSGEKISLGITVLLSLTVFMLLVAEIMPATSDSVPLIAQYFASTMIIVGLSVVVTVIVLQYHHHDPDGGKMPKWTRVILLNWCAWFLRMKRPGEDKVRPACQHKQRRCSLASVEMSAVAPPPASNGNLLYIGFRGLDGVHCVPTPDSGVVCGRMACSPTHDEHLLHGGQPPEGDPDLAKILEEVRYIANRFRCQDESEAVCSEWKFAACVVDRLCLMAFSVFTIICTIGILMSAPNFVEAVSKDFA
Method Summary: Inhibition of human alpha7 nAChR expressed in Xenopus laevis oocytes assessed as inhibition of ACh-evoked currents by two-electrode voltage clamp assay
pIC50: −log10 of the molar value. Bridge positions count the residues as written; N and C are the ends. Peptide text beside a SMILES is read from it.
Property: pIC50

>>> experimental_value("N=C(N)NCCC[C@@H]1NC(=O)[C@H](Cc2ccc(O)cc2)NC(=O)[C@H](CCCNC(=N)N)NC(=O)[C@@H]2CSSC[C@H](NC(=O)CN)C(=O)N[C@@H](CSSC[C@@H](C(N)=O)NC1=O)C(=O)N[C@@H](CO)C(=O)N[C@@H](CC(=O)O)C(=O)N1CCC[C@H]1C(=O)N[C@@H](CCCNC(=N)N)C(=O)N2 (H-GCCSDPRCRYRC-NH2; disulfide 2-8, 3-12)")
"< 6.00"
>>> experimental_value("CC[C@H](C)[C@@H]1NC(=O)[C@H](CCC(=O)O)NC(=O)[C@@H]2CCCN2C(=O)[C@H](Cc2cnc[nH]2)NC(=O)[C@H](CC(=O)O)NC(=O)[C@H](Cc2ccc(O)cc2)NC(=O)[C@H](CC(N)=O)NC(=O)[C@@H]2CSSC[C@H](NC(=O)CN)C(=O)N[C@@H](CSSC[C@@H](C(N)=O)NC1=O)C(=O)N[C@@H](CO)C(=O)N[C@@H](CC(=O)O)C(=O)N1CCC[C@H]1C(=O)N[C@@H](CCCNC(=N)N)C(=O)N2")
"< 5.00"
>>> experimental_value("C[C@@H]1NC(=O)[C@@H]2CSSC[C@H](NC(=O)CN)C(=O)N[C@@H](CSSC[C@@H](C(N)=O)NC(=O)[C@H](CCCNC(=N)N)NC(=O)[C@H](Cc3c[nH]c4ccccc34)NC1=O)C(=O)N[C@@H](CO)C(=O)N[C@@H](CC(=O)O)C(=O)N1CCC[C@H]1C(=O)N[C@@H](CCCNC(=N)N)C(=O)N2")
6.00

Problem: Which measured pIC50 value corresponds to CC(C)C[C@@H]1NC(=O)[C@H](CCC(=O)O)NC(=O)[C@@H]2CCCN2C(=O)[C@H](Cc2cnc[nH]2)NC(=O)[C@H](CC(N)=O)NC(=O)[C@H](C(C)C)NC(=O)[C@H](CO)NC(=O)[C@@H]2CSSC[C@H](NC(=O)CN)C(=O)N[C@@H](CSSC[C@@H](C(N)=O)NC1=O)C(=O)N[C@@H](CO)C(=O)N[C@@H](Cc1cnc[nH]1)C(=O)N1CCC[C@H]1C(=O)N[C@@H](C)C(=O)N2 (H-GCCSHPACSVNHPELC-NH2; disulfide 2-8, 3-16) ?
Result: < 5.00
